system: CYPERUS IRIA; experiment: Preemergence weed control under flooded paddy conditions, CYPIR (Rice Flatsedge); type: in vivo; conditions: 0.500 kg/ha, preemergence, 3-4 weeks after treatment
resultType: Herbicidal effect rating, CYPIR
// no unit, no text: just the number

COC(=O)Cn1c(=O)n(C)c(=O)n(-c2cc(Oc3ccc(SC)cc3Cl)ccc2[N+](=O)[O-])c1=O yielded Herbicidal effect rating, CYPIR of 0.0

Value of measured Herbicidal effect rating, CYPIR for the entry COC(=O)Cn1c(=O)n(C)c(=O)n(-c2cc(Oc3cc(OC)c(Cl)cc3Cl)ccc2[N+](=O)[O-])c1=O : 0.0

Sample COC(=O)Cn1c(=O)n(C)c(=O)n(-c2cc(Oc3ccc([N+](=O)[O-])cc3F)ccc2[N+](=O)[O-])c1=O ; Herbicidal effect rating, CYPIR observed: 0.0

In plain terms, COC(=O)Cn1c(=O)n(C)c(=O)n(-c2cc(Oc3c(Cl)cc(Cl)cc3Cl)ccc2[N+](=O)[O-])c1=O has a documented Herbicidal effect rating, CYPIR of 9.0
